Target: T1, human ROR2 expressed on the cell surface (human, UniProt Q01974 34-943)
T1 construct: Endogenous ROR2 of human tumour cell lines; also called cell surface ROR2; ROR2 on tumour cell lines
T1 sequence (Q01974 34-943 limits assumed): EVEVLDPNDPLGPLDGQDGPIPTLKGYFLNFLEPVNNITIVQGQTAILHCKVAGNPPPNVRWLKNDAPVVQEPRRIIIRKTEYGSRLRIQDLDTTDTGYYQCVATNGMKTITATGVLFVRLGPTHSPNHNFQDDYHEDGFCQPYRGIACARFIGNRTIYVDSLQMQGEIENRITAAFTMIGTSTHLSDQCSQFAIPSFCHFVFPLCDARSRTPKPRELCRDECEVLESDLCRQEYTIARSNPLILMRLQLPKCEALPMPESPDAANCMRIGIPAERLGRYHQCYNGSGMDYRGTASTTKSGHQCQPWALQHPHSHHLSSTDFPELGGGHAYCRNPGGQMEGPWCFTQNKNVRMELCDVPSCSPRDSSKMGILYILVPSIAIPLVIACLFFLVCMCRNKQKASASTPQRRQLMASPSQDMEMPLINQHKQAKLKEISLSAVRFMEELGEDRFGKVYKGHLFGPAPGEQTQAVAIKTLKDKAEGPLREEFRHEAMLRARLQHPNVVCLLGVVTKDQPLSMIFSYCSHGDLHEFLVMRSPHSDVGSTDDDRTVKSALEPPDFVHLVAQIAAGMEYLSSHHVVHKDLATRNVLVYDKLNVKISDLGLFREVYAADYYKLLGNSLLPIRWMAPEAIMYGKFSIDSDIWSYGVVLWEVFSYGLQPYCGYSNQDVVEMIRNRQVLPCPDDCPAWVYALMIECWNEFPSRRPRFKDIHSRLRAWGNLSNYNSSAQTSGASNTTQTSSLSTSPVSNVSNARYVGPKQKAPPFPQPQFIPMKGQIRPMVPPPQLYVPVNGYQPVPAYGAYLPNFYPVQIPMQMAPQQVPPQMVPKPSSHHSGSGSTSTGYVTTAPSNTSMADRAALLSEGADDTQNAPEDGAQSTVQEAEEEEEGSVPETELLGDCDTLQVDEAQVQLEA
Test: flow cytometry, TC32 cells (EW/PNET)
Set-up: unit not given here
MEASUREMENT_KIND: binding intensity

>>> test_result("ROR2-240 full length human IgG1 antibody (antibody, V domains shown, also called clone #240 IgG1) VH: QITLKESGPELVKPTQTLTLTCTFSGFSLSTSGMSVSWIRQPPGKALEWLARIDWDDDKYYSTSLKTRLTISKDTSKNQVVLTMTNTDPVDTATYYCARGFYLAYGSYDSWGQGTLVTVSS VL: QSALTQPASVSGSPGQSITISCTGTSGDVGGYNYVSWYQHHPGKAPKLIIYDVNKRPSGFSDRFSGSKSGNTASLTISGLQAEDEADYYCSSYTSTSTVFGGGTKLTVLG")
4

Turning now to a further record.
Suppose we examine the binder ROR2-90 full length human IgG1 antibody (antibody, V domains shown, also called clone #90; antibody #90) VH: EVQLVESGPGLVKPSQTLSLTCTVSGGSISSGGYYWSWIRQHPGKGLEWIGYIYYSGSTYYNPSLKSRVTISVDTSKNQFSLKLSSVTAADTAMYYCARGGLYWTYSQDVWGQGTLVTVSS VL: QPVLTQPPSASGTPGQRVTISCSGSSSNIGSDYVSWYQQLPGTAPKLLIYRNDQRPSGVPDRFSGSKSGTSASLAISGLRSEDEADYYCVAWDDSLSGYVFGSGTKVTVLG ; what binding intensity value has been reported?
70
